pIC50: −log10 of the molar value.
Here, molecules appear alongside pIC50 reported for Cytochrome P450 2C19 (Homo sapiens, UniProt P33261) in the literature.
Quantity name: pIC50

1) Cc1nn(C)cc1-c1ccc([C@H](C)N2CC[C@](CC(C)(C)O)(c3ccccc3)OC2=O)cc1 : 4.48
2) C[C@]1(c2cc(NC(=O)c3ccc(C#N)cn3)ccc2F)N=C(N)SCC12CC(F)(F)C2 : ≤ 4.70
3) CNC(=O)c1cc(COC2=NN=C(Nc3ccc(Cl)cc3)C3C=CSC23)ccn1 (stereo not shown) : < 4.70
4) C[C@@H](c1ccccc1-c1ccc(F)cc1)n1cncc1C(=O)N1CCC(N2CC[C@H](O)[C@@H](F)C2)CC1 : < 5.00
5) [2H][C@@]1(c2ccc(Cl)c(Cc3ccc(OCC)cc3)c2)O[C@H](CO)[C@@H](O)[C@H](O)[C@H]1O : 3.98
6) CC(=O)N1CCC(c2cc(OC3CC3)c(Nc3ncc(Cl)c(Nc4cn(C)nc4S(=O)(=O)C(C)C)n3)cc2C)CC1 : < 5.00
7) CC#CCOc1cnc(C(=O)Nc2ccc(F)c([C@@]3(C)N=C(N)O[C@H](C(C)(F)F)[C@@H]3F)c2)cn1 : ≤ 5.00
